Task for the reader: assign each of the following compounds its reported MIC.
system: Pseudomonas aeruginosa; experiment: Antimicrobial activity of the Compound was tested for minimum inhibitory concentration against Pseudomonas aeruginosa 1001; assay type: functional

Example entries begin here.
C#CC#CC#CC#CC(O)/C=C/C=C/C (stereo unspecified) | > 25 µg/mL
C#CC#CC#CC#C/C=C/C=C/C(C)O (racemic) | > 25 µg/mL
C#CC#CC#C/C=C/C=C/C(C)O (stereo unspecified) | > 50 µg/mL
C#CC#CC#CC#C/C=C/C=C/[C@@H](C)O | > 12.5 µg/mL

I would be grateful if you could provide MIC for each of the following entries.
1. C#CC#CC#CC#C/C=C/C=C/[C@H](C)O
2. C#CC#CC#CC#CC1(O)CCCCC1

1. > 25 µg/mL
2. > 25 µg/mL

----------
system: Trichophyton benhamiae; experiment: Antimicrobial activity of the Compound was tested for minimum inhibitory concentration against Trichophyton mentagrophytes; type: functional, Arthroderma benhamiae
MEASUREMENT_NAME: MIC (µg/mL)
Give bare numbers, in µg/mL.

Sample records with MIC:
C#CC#CC#C/C=C/C=C/C(C)O (centres undefined) | 0.8
C#CC#CC#CC#C/C=C/C=C/[C@@H](C)O | 0.2

Now look at this entry.
Fill in the blank: the reported MIC of C#CC#CC#CC#C/C=C/C=C/[C@H](C)O is ____.
0.4

----------
test system: Enterococcus faecalis; experiment: Antimicrobial activity of the Compound was tested for minimum inhibitory concentration against Enterococcus faecalis 681; format: functional
MEASUREMENT_NAME: MIC

Reference set, count: 3
C#CC#CC#CC#C/C=C/C=C/[C@H](C)O | 6.2 µg/mL
C#CC#CC#C/C=C/C=C/C(C)O (stereo unspecified) | 12.5 µg/mL
C#CC#CC#CC#CC1(O)CCCCC1 | 12.5 µg/mL

For each of the compounds below, state MIC.
1. C#CC#CC#CC#C/C=C/C=C/C(C)O (racemic)
2. C#CC#CC#CC#C/C=C/C=C/[C@@H](C)O
3. C#CC#CC#CC#CC(O)/C=C/C=C/C (stereo unspecified)

1. 3.1 µg/mL
2. 3.1 µg/mL
3. 3.1 µg/mL

----------
test system: Klebsiella pneumoniae; assay: Antimicrobial activity of the Compound was tested for minimum inhibitory concentration against Klebsiella pneumoniae 806; format: functional
Assign MIC to each entry below.

Some solved entries appear below for comparison.
C#CC#CC#CC#CC(O)/C=C/C=C/C (stereo unspecified) | > 25 µg/mL
C#CC#CC#CC#C/C=C/C=C/C(C)O (racemic) | 1.5 µg/mL
C#CC#CC#CC#C/C=C/C=C/[C@@H](C)O | 3.1 µg/mL
C#CC#CC#CC#C/C=C/C=C/[C@H](C)O | > 25 µg/mL
C#CC#CC#C/C=C/C=C/C(C)O (stereo unspecified) | > 50 µg/mL

Quick one: MIC for C#CC#CC#CC#CC1(O)CCCCC1 ?
> 25 µg/mL

----------
Field: MIC. Provide a value for each of the molecules that follow.
system: Staphylococcus aureus; test: Antimicrobial activity of the Compound was tested for minimum inhibitory concentration against Staphylococcus aureus 209P; type: functional
Give bare numbers, in µg/mL.

Known results for molecules:
C#CC#CC#CC#C/C=C/C=C/[C@H](C)O | 0.2
C#CC#CC#CC#C/C=C/C=C/[C@@H](C)O | 0.2
C#CC#CC#C/C=C/C=C/C(C)O (stereo unspecified) | 0.8
C#CC#CC#CC#C/C=C/C=C/C(C)O (racemic) | 0.2

Below is a list of molecules. For each, state its recorded MIC.
1. C#CC#CC#CC#CC1(O)CCCCC1
2. C#CC#CC#CC#CC(O)/C=C/C=C/C (stereo unspecified)

1: 1.5; 2: 0.2
